assay: yeast display, Sf9 membrane polyspecificity reagent, FACS + sequencing; frameworks hold sequencing errors
REPORTED PROPERTY: polyreactivity (PSR sort gate)

Consider the reported polyreactivity (PSR sort gate) for these sequences:
QVQLVESGGGLVQAGGSLRLSCAASGGTFDPSAMGWYRQAPGKERDFVAAISWSGGRTYYADSVKGRFTISRDNAKNTVYLQMNSLKPEDTAVYYCAATSVGYAQRRYGYWGQGTQVTVSS : high polyreactivity
QVQLVESGGGLVQAGGSLRLSCAASGSIIYRYAMGWYRQAPGKEMELVAAISTAGSTNYADSVKGRFTISRDNAKNTVYLLMNCLKPEDTAVYYCAAKSYRGRTQRSYGYWGQGTQVSVSS : low polyreactivity
QVHLVESGGGLVQAGGSLRLSCAASGITFLKYAMGWYRQAPGKERELVARITSGGRTYYADSVKGRFTISRDNAKNTVYLLMNSLKPEDTAVYYCNAVKSYASLYAGFYYWGQGTHVTVSS : high polyreactivity
QVQLVESGGGIVQAGGSLRLSCAASGRNFTFYAMGWYRQAPGKERELVAAITKSGGSTYYADSVKGRFTISRDNAKNTVYLQMNSLKPEDTAVYYCAAGNHRRPADYGSWGQGTQVTVSS : low polyreactivity
QVQLVESGGGLVQAGGSLRLSCAASGFIFGNYAMGWYRQAPGKERELVATITRRGGRTYYADSVKGRFTISRDIAKNTVYLQMTSLKPEDTAVYYCNARPSRWAREGYWGQGTQVTVSS : high polyreactivity

Reported polyreactivity (PSR sort gate) of `QVQLVESGGGLVQAGGSLRLSCAASGSTFHSYAMGWYRQAPGKERELVAGITWGGGTYYADSVKGRFTISRDNAKNTVYLQMNSLKPEDTAVYYCAALSYVGSNVYTGAPAAPYDYWGQGTQVTVSS` : low polyreactivity

The sequence listed as `QVQHVESGGGLFQAGGSHRLSCAASGRTFSKNAMGWYRQAPGKERELVAAINRGGTTKYADSVKGRFTISRDNAKNTVYLQMNSQKPEDTTVYYCAVDRQRAGYPKQYDSWGQGTQVTVSS` has a reported polyreactivity (PSR sort gate) of low polyreactivity

Lab note: measured polyreactivity (PSR sort gate) of `QVQLVESGGGLVQAGGSLRLSCAASGRTFGYYTMGWSRQAPGKERDLVATISSDGTTNYADSVKGRFTISRDNAKNTVYLQMNSLKPEDTAVYYCNADFRLQYYYRIYDYWGQGTQVTVSS` was low polyreactivity

The value of polyreactivity (PSR sort gate) measured for the sequence `QVQHVESGGGLVQAGGSLRLSCAASGSIFYDYAMGWYRQAPGKERELVAAISKSDGSTYYADSVKGRFTISRDNAKNTVYLQMNSLKPEDTAVYYCNADLIYSYPPEYDYWGQGTQVTVSS` turned out to be high polyreactivity

Record summary for `QVQLVESVGGLVQAGGSLRLSCASSGNIFGAYAMGWYRQAPGKERELVAAIDSGSTNYADSVKGRFTISRDNAKNTVSLQMNSLKPEDTAVYYCNTKDQDVKVHHTSNTDDYWGQGTQVTVSS` : reported polyreactivity (PSR sort gate) = low polyreactivity

Note to self: polyreactivity (PSR sort gate) recorded for `QVQLVESGGGLVQAGGSLRLSCAASGRISVVNARGWYRQAPGKERELVAAIRRASTNYADSVKGRFTISRDIAKNTVYLQMNILKPEDTAVYYCAARVYGINIFEYWGQGTQVTVSS` was high polyreactivity

Please fill in: polyreactivity (PSR sort gate) reported for `QFQLVESGGGLVQAGGSLRLSCAASGSIFELNAKGLYRTAPGKERELVAAITSSGSSTYYADSVKGRFTISRDNAKNTVYLQMNRLKPEDTAVYYCFRPHDYWGQGTQVTESS` = low polyreactivity
